System: T-47D cells
Assay: Caspase cascade activation (N-(Ac-DEVD)-N'-ethoxycarbonyl-R110 fluorogenic substrate) in T-47D cells
Assay type: cell-based, Human
Conditions: caspase activity: ratio of net RFU of test compound to control, 48 h incubation
Range-based classes on measured T47 Ratio 48 hr: low interval = under 2, middle interval = from 2 up to 10, high interval = 10 and over

chemical_structure: COc1cccc(Nc2cc(C)nc(-c3ccccn3)n2)c1
assigned_class: high interval
//
chemical_structure: COc1ccc(Cl)c(Nc2cc(C(F)(F)F)nc(-c3ccccn3)n2)c1
assigned_class: high interval
//
chemical_structure: Cc1ccc(O)cc1Nc1cc(C(F)(F)F)nc(-c2cccnc2)n1
assigned_class: high interval
//
chemical_structure: COc1ccc(Cl)c(Nc2cc(C)nc(-c3ccccn3)n2)c1
assigned_class: high interval
//
chemical_structure: COc1cccc(Nc2cc(C)nc(-c3ccccn3)n2)c1OC
assigned_class: low interval
//
chemical_structure: Cn1cc(Br)c(-c2cccc(Nc3cc(C(F)(F)F)nc(-c4cccnc4)n3)c2)n1
assigned_class: low interval
//
chemical_structure: COc1cccc(CNc2cc(C(F)(F)F)nc(-c3cccnc3)n2)c1
assigned_class: low interval
//
chemical_structure: FC(F)(F)c1cc(Nc2cccc(-c3ccccc3)c2)nc(-c2cccnc2)n1
assigned_class: low interval
//
chemical_structure: COc1cccc(Nc2cc(C(F)(F)F)nc(-c3cnccn3)n2)c1
assigned_class: high interval
//
chemical_structure: Oc1ccc(Cl)cc1Nc1cc(C(F)(F)F)nc(-c2cnccn2)n1
assigned_class: middle interval
//
chemical_structure: COc1ccc(Cl)c(Nc2cc(C(F)(F)F)nc(-c3ccc(C(F)(F)F)nc3)n2)c1
assigned_class: middle interval
//
chemical_structure: Cc1cc(C)cc(Nc2cc(C(F)(F)F)nc(-c3cccnc3)n2)c1
assigned_class: high interval
//
chemical_structure: COc1cccc(Nc2cc(C(F)(F)F)nc(-c3ccncc3)n2)c1
assigned_class: middle interval
//
chemical_structure: COc1ccc(OC)c(CCNc2cc(C(F)(F)F)nc(-c3cccnc3)n2)c1
assigned_class: low interval
//
chemical_structure: Cc1cc(Nc2cc(C(F)(F)F)nc(-c3ccccn3)n2)c(C)cc1O.Cl
assigned_class: high interval
//
chemical_structure: Fc1c(F)c(F)c(Oc2cccc(Nc3cc(C(F)(F)F)nc(-c4cccnc4)n3)c2)c(F)c1F
assigned_class: low interval
//
chemical_structure: COc1cc(C#N)c(Nc2cc(C(F)(F)F)nc(-c3cccnc3)n2)cc1OC
assigned_class: high interval
//
chemical_structure: COc1cc(C)c(Nc2cc(C(F)(F)F)nc(-c3cccnc3)n2)cc1OC
assigned_class: middle interval
//
chemical_structure: COc1cc(Nc2cc(C(F)(F)F)nc(-c3ccccn3)n2)cc(OC)c1
assigned_class: middle interval
//
chemical_structure: COc1ccc(OC)c(Nc2cc(C(F)(F)F)nc(-c3ccccn3)n2)c1
assigned_class: middle interval
//
chemical_structure: Cc1cc(Nc2c(C)cccc2C)nc(-c2ccccn2)n1
assigned_class: low interval
